Hello, the source for this data is the supplement of paper PMC10567573, in case you need it.

B1: BRF1 (parent)
chain: FVESSGGGSSAVGQFVSLDGAGKT

# Variants of: B1
# testName: protein stability index of a GFP-peptide fusion (GPS, HEK-293T) (PSI 1-6); higher = more stable;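 also: lentivirally expressed fusions sorted by FACS into six bins by GFP to DsRed ratio, PSI derived from sequencing read proportions per bin multiplied by bin number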
# experimentalSetup: c terminus: a fixed tail appended
Lab note: compare protein stability index against 2. Equal or greater, write satisfied. Smaller, write not satisfied.

Ask: Confirm if protein stability index reported for the variant `S17P` is 2 or above.
Reply: not satisfied

Ask: Record: `F1Q`
Reply: satisfied

Ask: What about `V12D` ?
Reply: satisfied

Ask: Proceed to `G8I`
Reply: not satisfied

Ask: Check `G8R` too.
Reply: not satisfied

Ask: Can you handle `L18M` next?
Reply: satisfied

Ask: Try this variant too: `A11Q`
Reply: satisfied

Ask: Now the variant `S9K`
Reply: not satisfied

Ask: Subsequent entry: `G6P`
Reply: satisfied

Ask: Next: `L18P`
Reply: satisfied

Ask: Here is the next variant: `G20K`
Reply: not satisfied

Ask: Then `G6K` ?
Reply: satisfied

Ask: Input `G22F`
Reply: satisfied

Ask: Can you handle `F15A` next?
Reply: satisfied

Ask: Consider next the variant `Q14Y` in the same way.
Reply: not satisfied

Ask: Try this variant next: `V16H`
Reply: satisfied

Ask: Also need `Q14S` , thanks.
Reply: not satisfied

Ask: One more variant: `S9T`
Reply: satisfied
